- assay-system: polyclonal IgG (Gammanorm, Octapharma, Sweden)
- experiment-summary: SPR (Biacore 8K+), variant amine-coupled to CM5, Gammanorm as analyte, steady state fit
# Kd per record follows
Dear colleague, please return just the value in nM, with no unit written.

Study these solved cases before continuing.
>>> obs_value("pAM154 (B1 domain of Protein L; pos 10 Q, pos 45 A, pos 60 Q) (designed binder) SEEEVTIKAQLIFANGSTQTAEFKGTFEKATSEAYAYADTLKKDAGEYTVDVADKGYTLQIKFAGKEKTPEE")
65
>>> obs_value("pAM139 (B3 domain of Protein L; pos 10 Y, pos 45 H, pos 60 Q) (designed binder) PKEEVTIKAYLIYADGKTQTAEFKGTFEEATAEAYRYADLLAKEHGKYTVDVADKGYTLQIKFAGKEKTPEE")
71
>>> obs_value("pAM175 (C2 domain of Protein L; pos 10 Y, pos 45 H, pos 57 Y, pos 60 Y) (designed binder) PKEEVTIKVYLIFADGKTQTAEFKGTFEEATAKAYAYADLLAKEHGEYTADLEDGGYTIYIKFAGKETPETPEE")
57
>>> obs_value("pAM138 (B3 domain of Protein L; pos 10 Y, pos 45 A, pos 60 Y) (designed binder) PKEEVTIKAYLIYADGKTQTAEFKGTFEEATAEAYRYADLLAKEAGKYTVDVADKGYTLYIKFAGKEKTPEE")
73

Now for a further binder.
Recorded Kd for pAM149 (C2 domain of Protein L; pos 10 N, pos 45 N, pos 57 Y, pos 60 N) (designed binder) PKEEVTIKVNLIFADGKTQTAEFKGTFEEATAKAYAYADLLAKENGEYTADLEDGGYTINIKFAGKETPETPEE , please?
45
